Below, each of the binders is paired with its reported kon value.
Assay System: Vaccinia Virus, Western Reserve, L1R Protein with C-Terminal Histidine Tag, Recombinant from baculovirus (Vaccinia virus, Western Reserve, UniProt P07612)
Measurement Notes: SPR; […] (100 to 0 nM, […], dissociation 600 s; […]; Langmuir model; […]
Experimental Context: both partners purified
// return numeric value only (unit: M⁻¹ s⁻¹, not printed)

Example entries and their recorded answers appear below.
Binder: sdAb clone L1-G2 (VHH) VHH: EVQLQASGGGLVQAGGSLRLSCTASGRAFSTTNMGWFRQAPGKEREFVTRVNWSGGVTSYADSVKGRFTLSRDNTKNTVYLQMDSLKPEDTAVYYCAGSTVWSTDRKHYNYWGQGTQVTVSS
Units: M⁻¹ s⁻¹
kon: 580000
--
Binder: sdAb clone L1-G2+neg (VHH) VHH: EVQLVESGGGLVQDGDSLRLSCTASGRAFSTTNMGWFRQAPGKEREFVCRVNWSGGVTSYADSVKGRFTCSRDNTKNTVYLQMDSLKPEDTAVYYCAGSTVWSTDRKHYNYWGQGTQVTVSS
Units: M⁻¹ s⁻¹
kon: 420000
--
Binder: sdAb clone L1-G2+neg2 (VHH) VHH: EVQLVESGGGLVQDGDSLRLSCTASGRAFSTTNMGWFRQAPGKEREFVCRVNWSGGVTSYADSVKGRFTCSADNTKNTVYLQMDSLKPEDTAVYYCAGSTVWSTDRKHYNYWGQGTQVTVSS
Units: M⁻¹ s⁻¹
kon: 540000

Now for another entry.
Exercise: Quick one: give measured kon for sdAb clone L1-G2+ (VHH) VHH: EVQLQASGGGLVQAGGSLRLSCTASGRAFSTTNMGWFRQAPGKEREFVCRVNWSGGVTSYADSVKGRFTCSRDNTKNTVYLQMDSLKPEDTAVYYCAGSTVWSTDRKHYNYWGQGTQVTVSS
Solution: 590000
